- EXPERIMENTAL SYSTEM: Protein ENL (Homo sapiens, UniProt Q03111)
- Sequence (Q03111 whole entry): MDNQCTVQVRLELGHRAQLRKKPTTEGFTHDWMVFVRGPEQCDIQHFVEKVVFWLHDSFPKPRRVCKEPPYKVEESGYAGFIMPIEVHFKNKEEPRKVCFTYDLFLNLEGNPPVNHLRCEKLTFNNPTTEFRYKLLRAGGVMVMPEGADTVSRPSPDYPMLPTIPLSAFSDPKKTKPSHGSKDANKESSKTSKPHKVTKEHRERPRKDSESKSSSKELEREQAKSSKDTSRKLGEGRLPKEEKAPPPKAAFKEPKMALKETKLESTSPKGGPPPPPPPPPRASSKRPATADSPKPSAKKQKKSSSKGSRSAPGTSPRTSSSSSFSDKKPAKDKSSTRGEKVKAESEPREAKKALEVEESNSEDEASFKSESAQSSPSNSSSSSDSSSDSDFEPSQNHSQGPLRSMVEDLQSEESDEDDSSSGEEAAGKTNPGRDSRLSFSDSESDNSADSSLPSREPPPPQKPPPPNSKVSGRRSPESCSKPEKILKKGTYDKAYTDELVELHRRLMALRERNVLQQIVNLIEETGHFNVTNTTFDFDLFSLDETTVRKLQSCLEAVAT
- ASSAY OVERVIEW: Binding affinity to C-terminal ENL YEATS domain (unknown origin) (M1 to A148 residues) assessed as dissociation constant by ITC assay
pKd: −log10 of the molar value.
OBSERVED PROPERTY: pKd

RECORD SMILES | OBSERVED PROPERTY | OBSERVED
COC(=O)c1ccc(C(=O)Nc2ccc3[nH]c(CN4CCCCC4)nc3c2)cc1 | pKd | 6.12
